- Tested on: Staphylococcus aureus
- test-name: Antibacterial activity against Staphylococcus aureus assessed as inhibition of bacterial growth measured after 24 hrs by CLSI based broth microdilution method
- Type: functional
Consider the following partition of reported MIC into named classes: I (below 20 µg/mL), II (20 µg/mL to below 100 µg/mL), III (100 µg/mL or more)

# example entries with known answers
CCCCOP(=O)(OCCCC)C(Nc1ccc(S(=O)(=O)Nc2nccs2)cc1)c1cc(O)c2c(c1)C(=O)c1cccc(O)c1C2=O (configuration not stated); III
CC(C)OP(=O)(OC(C)C)C(Nc1ccc(S(=O)(=O)Nc2nccs2)cc1)c1cc(O)c2c(c1)C(=O)c1cccc(O)c1C2=O (configuration not stated); III
O=C1c2cccc(O)c2C(=O)c2c(O)cc(CO)cc21; II
COP(=O)(OC)C(Nc1ccc(S(=O)(=O)Nc2nccs2)cc1)c1cc(O)c2c(c1)C(=O)c1cccc(O)c1C2=O (configuration not stated); I
O=C1c2cccc(O)c2C(=O)c2c(O)cc(C(Nc3ccc(S(=O)(=O)Nc4nccs4)cc3)P(=O)(Oc3ccccc3)Oc3ccccc3)cc21 (configuration not stated); II
Nc1ccc(S(=O)(=O)Nc2ncccn2)cc1; II
O=C1c2cccc(O)c2C(=O)c2c(O)cc(C(Nc3ccc(S(=O)(=O)Nc4ncccn4)cc3)P(=O)(Oc3ccccc3)Oc3ccccc3)cc21 (configuration not stated); II
CCCCOP(=O)(OCCCC)C(Nc1ccc(S(=O)(=O)Nc2cc(C)on2)cc1)c1cc(O)c2c(c1)C(=O)c1cccc(O)c1C2=O (configuration not stated); III

Exercise: Record CCOP(=O)(OCC)C(Nc1ccc(S(=O)(=O)Nc2ccccn2)cc1)c1cc(O)c2c(c1)C(=O)c1cccc(O)c1C2=O (configuration not stated) — which class?
Solution: II

Exercise: Please give the result for NS(=O)(=O)c1ccc(NC(c2cc(O)c3c(c2)C(=O)c2cccc(O)c2C3=O)P(=O)(Oc2ccccc2)Oc2ccccc2)cc1 (configuration not stated) too.
Solution: II

Exercise: Please give the result for `CCn1cc(C(=O)O)c(=O)c2cc(F)c(N3CCNCC3)cc21` too.
Solution: I

Exercise: Please give the result for CCOP(=O)(OCC)C(Nc1ccc(S(=O)(=O)Nc2cc(C)on2)cc1)c1cc(O)c2c(c1)C(=O)c1cccc(O)c1C2=O (configuration not stated) too.
Solution: I

Exercise: Please give the result for Cc1cc(NS(=O)(=O)c2ccc(NC(c3cc(O)c4c(c3)C(=O)c3cccc(O)c3C4=O)P(=O)(Oc3ccccc3)Oc3ccccc3)cc2)no1 (configuration not stated) too.
Solution: II

Exercise: Please give the result for `Cc1cc(NS(=O)(=O)c2ccc(N)cc2)no1` too.
Solution: I

Exercise: Please give the result for CCCCOP(=O)(OCCCC)C(Nc1ccc(S(=O)(=O)Nc2onc(C)c2C)cc1)c1cc(O)c2c(c1)C(=O)c1cccc(O)c1C2=O (configuration not stated) too.
Solution: I

Exercise: Please give the result for Cc1noc(NS(=O)(=O)c2ccc(NC(c3cc(O)c4c(c3)C(=O)c3cccc(O)c3C4=O)P(=O)(Oc3ccccc3)Oc3ccccc3)cc2)c1C (configuration not stated) too.
Solution: I

Exercise: Please give the result for `Nc1ccc(S(=O)(=O)Nc2nccs2)cc1` too.
Solution: III

Exercise: Please give the result for Cc1cc(NS(=O)(=O)c2ccc(NC(c3cc(O)c4c(c3)C(=O)c3cccc(O)c3C4=O)P(=O)(OC(C)C)OC(C)C)cc2)no1 (configuration not stated) too.
Solution: III

Exercise: Please give the result for Nc1ccc(S(N)(=O)=O)cc1 [SULFANILAMIDE] too.
Solution: III

Exercise: Please give the result for COP(=O)(OC)C(Nc1ccc(S(=O)(=O)Nc2cc(C)on2)cc1)c1cc(O)c2c(c1)C(=O)c1cccc(O)c1C2=O (configuration not stated) too.
Solution: I

Exercise: Please give the result for Cc1noc(NS(=O)(=O)c2ccc(NC(c3cc(O)c4c(c3)C(=O)c3cccc(O)c3C4=O)P(=O)(OC(C)C)OC(C)C)cc2)c1C (configuration not stated) too.
Solution: I
